Origin of measurements: patent EP4541814A1

- measurement.target: AAV9 viral particles (adeno-associated virus 9)
- measurement.description: SPR (Biacore), polypeptide amine-coupled to CM5, AAV9 analyte; response normalized to SEQ ID NO:80
Here the recorded Normalized AAV9 binding capacity (%) is given for each entry.

binder	Normalized AAV9 binding capacity (%)
vh266 (SEQ ID NO:112) (VHH) VHH: QVQLQQSGGGSVQAGGSLRLSCTISGRTLSDYTMGWFRQRPGKELEFVAAISWSGAYTKYADSVKGRFTISRDNAKNTVYLQMNSLKPEDTAVYYCAAGPTGLLSKKATPADYDYWGQGTQVTVSS	115
vh345 (SEQ ID NO:104) (VHH) VHH: QVQLQQSGGGSVQAGGSLRLSCTISGRTLSDYTMGWFRQAPGKEREFVAAISWSGAYTKYADSVKGRFTISRDNAKNTVYLQMNSLKPEDTAIYYCAAGPTGLLSKKATPADYDYWGQGTQVTVSS	101
vh257 (SEQ ID NO:101) (VHH) VHH: QVQLQQSGGGSVQAGGSLRLSCTISGRTLSDYTMGWFRQTPGKEREFVAAISWSGAYTKYADSVKGRFTISRDNAKNTVYLQMNSLKPEDTAVYYCAAGPTGLLSKKATPADYDYWGQGTQVTVSS	69
vh346 (SEQ ID NO:114) (VHH) VHH: QVQLQQSGGGSVQAGGSLRLSCTISGRTLSDYTMGWFRQRPGKERELVAAISWSGAYTKYADSVKGRFTISRDNAKNTVYLQMNSLKPEDTAIYYCAAGPTGLLSKKATPADYDYWGQGTQVTVSS	100
vh262 (SEQ ID NO:108) (VHH) VHH: QVQLQQSGGGSVQAGGSLRLSCTISGRTLSDYTMGWFRQRPGKQREFVAAISWSGAYTKYADSVKGRFTISRDNAKNTVYLQMNSLKPEDTAVYYCAAGPTGLLSKKATPADYDYWGQGTQVTVSS	104
vh341 (SEQ ID NO:103) (VHH) VHH: QVQLQQSGGGSVQAGGSLRLSCTISGRTLSDYTMGWFRQKPGKEREFVAAISWSGAYTKYADSVKGRFTISRDNAKNTVYLQMNSLKPEDTAVYYCAAGPTGLLSKKATPADYDYWGQGTQVTVSS	83
vh260 (SEQ ID NO:106) (VHH) VHH: QVQLQQSGGGSVQAGGSLRLSCTISGRTLSDYTMGWFRQRPGQEREFVAAISWSGAYTKYADSVKGRFTISRDNAKNTVYLQMNSLKPEDTAVYYCAAGPTGLLSKKATPADYDYWGQGTQVTVSS	77
vh261 (SEQ ID NO:107) (VHH) VHH: QVQLQQSGGGSVQAGGSLRLSCTISGRTLSDYTMGWFRQRPGREREFVAAISWSGAYTKYADSVKGRFTISRDNAKNTVYLQMNSLKPEDTAVYYCAAGPTGLLSKKATPADYDYWGQGTQVTVSS	105
